Recorded Ki for compounds tested on Histamine H3 receptor (Rattus norvegicus, UniProt Q9QYN8), drawn from a number of studies.
Sequence (Q9QYN8 whole entry): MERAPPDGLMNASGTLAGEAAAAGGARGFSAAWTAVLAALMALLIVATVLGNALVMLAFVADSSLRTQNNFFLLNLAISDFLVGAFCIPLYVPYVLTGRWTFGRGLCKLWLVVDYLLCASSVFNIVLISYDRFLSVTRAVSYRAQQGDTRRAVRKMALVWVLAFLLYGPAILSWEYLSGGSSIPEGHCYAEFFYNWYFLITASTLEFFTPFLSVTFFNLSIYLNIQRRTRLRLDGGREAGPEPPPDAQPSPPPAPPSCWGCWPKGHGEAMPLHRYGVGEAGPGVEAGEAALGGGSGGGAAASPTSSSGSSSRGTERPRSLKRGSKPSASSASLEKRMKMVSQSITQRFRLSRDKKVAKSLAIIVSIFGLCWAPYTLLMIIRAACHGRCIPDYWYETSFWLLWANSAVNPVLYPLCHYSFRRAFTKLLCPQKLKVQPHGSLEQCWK

{"compound": "CC1CCCN1C(=O)c1ccc(-c2ccc(OCCCN3CC[C@H](N(C)C)C3)cc2)cc1 (stereo not given in full)", "measurementTarget": "Histamine H3 receptor (Rattus norvegicus, UniProt Q9QYN8)", "unitsOfMeasure": "µM", "Ki": 0.0214}
{"compound": "N#Cc1ccc(-c2ccc3cc(CCN4CC[C@@H](O)C4)ccc3c2)cc1", "measurementTarget": "Histamine H3 receptor (Rattus norvegicus, UniProt Q9QYN8)", "unitsOfMeasure": "µM", "Ki": 0.0309}
{"compound": "C[C@@H]1CCCN1CCc1cc2cc(CNc3ncccn3)ccc2o1", "measurementTarget": "Histamine H3 receptor (Rattus norvegicus, UniProt Q9QYN8)", "unitsOfMeasure": "µM", "Ki": 0.00327}
{"compound": "Cc1cccc(-n2nc(C)c(-c3ccc(OC4CCN(C5CCC5)CC4)cc3)cc2=O)n1", "measurementTarget": "Histamine H3 receptor (Rattus norvegicus, UniProt Q9QYN8)", "unitsOfMeasure": "µM", "Ki": 0.01}
{"compound": "C[C@]12CC[C@@H]3c4ccc(OCCN5CCCC5)cc4CC[C@H]3[C@@H]1CC[C@@H]2N1CCCC1", "measurementTarget": "Histamine H3 receptor (Rattus norvegicus, UniProt Q9QYN8)", "unitsOfMeasure": "µM", "Ki": 0.0231}
{"compound": "N#Cc1ccc(-c2ccc3cc(CCN4CCCC4)ccc3c2)cc1", "measurementTarget": "Histamine H3 receptor (Rattus norvegicus, UniProt Q9QYN8)", "unitsOfMeasure": "µM", "Ki": 0.00642}
{"compound": "Cn1nc(-c2ccc(OCCCN3CCCCC3)cc2)c2c(c1=O)CCC2", "measurementTarget": "Histamine H3 receptor (Rattus norvegicus, UniProt Q9QYN8)", "unitsOfMeasure": "µM", "Ki": 0.0043}
{"compound": "C[C@@H](NC(=O)c1cccc(C(F)(F)F)c1)C(=O)N1CCN(CCCOc2ccc(-c3noc(CC4CCCC4)n3)c(F)c2)CC1", "measurementTarget": "Histamine H3 receptor (Rattus norvegicus, UniProt Q9QYN8)", "unitsOfMeasure": "µM", "Ki": 0.01}
{"compound": "O=C1c2ccc(-c3cccc(OC(F)(F)F)c3)cc2CCN1CCN1CCCC1", "measurementTarget": "Histamine H3 receptor (Rattus norvegicus, UniProt Q9QYN8)", "unitsOfMeasure": "µM", "Ki": 0.276}
{"compound": "CC(C)NC(=O)c1ccc(-c2ccc(OCCCN3[C@@H](C)CC[C@@H]3C)cc2)cc1", "measurementTarget": "Histamine H3 receptor (Rattus norvegicus, UniProt Q9QYN8)", "unitsOfMeasure": "µM", "Ki": 0.00282}
{"compound": "C[C@@H](NC(=O)c1ccco1)C(=O)N1CCCN(CCCOc2ccc(-c3noc(C(C)(C)C)n3)c(F)c2)CC1", "measurementTarget": "Histamine H3 receptor (Rattus norvegicus, UniProt Q9QYN8)", "unitsOfMeasure": "µM", "Ki": 0.0041}
{"compound": "C[C@@H]1CCCN1CCCOc1ccc(-c2nn(C)c(=O)c3c2CCC3)cc1", "measurementTarget": "Histamine H3 receptor (Rattus norvegicus, UniProt Q9QYN8)", "unitsOfMeasure": "µM", "Ki": 0.002}
{"compound": "CC1CCCN1CCCOc1ccc(C(=O)CN2CCOCC2)cc1 (racemic)", "measurementTarget": "Histamine H3 receptor (Rattus norvegicus, UniProt Q9QYN8)", "unitsOfMeasure": "µM", "Ki": 0.056}
{"compound": "O=C(O)c1cn(C2CC2)c2cc(N3CCNCC3)c(F)cc2c1=O", "measurementTarget": "Histamine H3 receptor (Rattus norvegicus, UniProt Q9QYN8)", "unitsOfMeasure": "µM", "Ki": 0.000654}
{"compound": "c1cc2c(cc1OCC1CCSCC1)CCC1(CCN(C3CCC3)CC1)O2", "measurementTarget": "Histamine H3 receptor (Rattus norvegicus, UniProt Q9QYN8)", "unitsOfMeasure": "µM", "Ki": 0.048}
{"compound": "CC(C)(C)OC(=O)N[C@H](Cc1ccccc1)C(=O)N1CCN(CCCOc2ccc(C(=O)C3CC3)cc2)CC1", "measurementTarget": "Histamine H3 receptor (Rattus norvegicus, UniProt Q9QYN8)", "unitsOfMeasure": "µM", "Ki": 0.00398}
{"compound": "c1cc2c(cc1OC1CCSC1)CCC1(CCN(C3CCC3)CC1)O2 (stereo not given)", "measurementTarget": "Histamine H3 receptor (Rattus norvegicus, UniProt Q9QYN8)", "unitsOfMeasure": "µM", "Ki": 0.042}
{"compound": "CCCCCC(=O)c1ccc(OCCCN2CCN(C(=O)OC)CC2)cc1", "measurementTarget": "Histamine H3 receptor (Rattus norvegicus, UniProt Q9QYN8)", "unitsOfMeasure": "µM", "Ki": 0.00302}
{"compound": "CC(=O)N1CCc2ccc(OCCCN3CCCCC3)cc2C1", "measurementTarget": "Histamine H3 receptor (Rattus norvegicus, UniProt Q9QYN8)", "unitsOfMeasure": "µM", "Ki": 0.0367}
{"compound": "O=C(c1ccc(Cn2ccc3cccc(Cl)c32)cc1)N1CC[C@H](N2CCCC2)C1", "measurementTarget": "Histamine H3 receptor (Rattus norvegicus, UniProt Q9QYN8)", "unitsOfMeasure": "µM", "Ki": 0.0217}
